Measured values drawn from PubChem BioAssay AID1996 for this set.

Details: buffer; pH 7.4; 200.0 µM
measured_property: solubility kinetic

// worked examples, solubility kinetic included
CNC(=O)NC(=O)CN1C(=O)NC2(CCOc3ccccc32)C1=O (stereo not given) :: > 49.8 µg/mL
O=C(Nc1cccnc1Cl)c1ccc(=O)oc1 :: > 37.6 µg/mL
Cc1ccsc1C(=O)N1CCc2ccccc2C1 :: > 38.6 µg/mL
CCc1cc(C(=O)c2ccc(OC)cc2)c(NC(=O)CCC(=O)O)s1 :: > 54.2 µg/mL
CCCCCCc1c(C)[nH]c2nc3ccccc3n2c1=O :: < 0.2 µg/mL

Task item: Supply reported solubility kinetic belonging to this molecule: `O=S(=O)(N1CCOCC1)N1CCOCC1`
Reply: > 35.4 µg/mL

Task item: Supply reported solubility kinetic belonging to this molecule: `CCOC(=O)C1CCN(C(=O)COC(=O)c2ccccc2OCC)CC1`
Reply: > 54.5 µg/mL

Task item: Supply reported solubility kinetic belonging to this molecule: `CCC(=O)c1ccc(OCC(=O)NCc2ccccc2CN2CCCC2)cc1`
Reply: > 57.1 µg/mL

----------
Details: buffer; pH 7.4; 200.0 µM
measured_property: solubility kinetic

N/C(=N/[N+](=O)[O-])N1CCN(C(=O)Oc2ccc([N+](=O)[O-])cc2)CC1 :: > 50.7 µg/mL
CCC1CCCCN1C(=O)NC(=O)c1ccccc1 (stereo not drawn) :: > 39.1 µg/mL
O=C(CCc1nc(-c2ccccc2Cl)no1)NCc1ccco1 :: > 49.8 µg/mL
COc1ccc(C(=O)N2CCN(c3ccccc3OC)CC2)cc1 :: > 49 µg/mL
COc1ccccc1NC(=O)Cc1ccsc1 :: > 37.1 µg/mL

Task item: Supply reported solubility kinetic belonging to this molecule: `CN(C)/C(=N\S(=O)(=O)c1ccccc1)c1ccc(Cl)cc1`
Reply: > 48.4 µg/mL

Task item: Supply reported solubility kinetic belonging to this molecule: CC1CCN(CC(C)OC(=O)c2ccco2)CC1.Cl (stereo not drawn)
Reply: > 43.2 µg/mL

Task item: Supply reported solubility kinetic belonging to this molecule: `CCCCNC1=NCCS1`
Reply: > 23.7 µg/mL

Task item: Supply reported solubility kinetic belonging to this molecule: `O=C(CCNS(=O)(=O)c1ccc(OC(F)(F)F)cc1)NC1CC1`
Reply: > 52.8 µg/mL

Task item: Supply reported solubility kinetic belonging to this molecule: `COc1cc(C(NC(C)=O)NC(C)=O)ccc1OCc1ccccc1`
Reply: > 51.4 µg/mL

Task item: Supply reported solubility kinetic belonging to this molecule: `O=C(O)CCNC(=S)Nc1cccc(F)c1`
Reply: > 36.3 µg/mL

Task item: Supply reported solubility kinetic belonging to this molecule: Cc1cc(Br)ccc1NC(=O)C1C2CCC(O2)C1C(=O)O (stereo not drawn)
Reply: > 53.1 µg/mL

Task item: Supply reported solubility kinetic belonging to this molecule: `CC1(C)NC(=O)N(CCOc2ccc([N+](=O)[O-])cc2)C1=O`
Reply: > 44 µg/mL

----------
Measured solubility kinetic, listed per entry.
Conditions: buffer; pH 7.4; 200.0 µM

// worked examples, solubility kinetic included
O=C1N[C@@H](Cc2ccccc2)C(=O)N2CCC[C@@H]12 :: > 36.6 µg/mL
NS(=O)(=O)c1ccc(NC(=O)CN2C(=O)c3ccccc3C2=O)cc1 :: > 53.9 µg/mL

Task item: Supply reported solubility kinetic belonging to this molecule: `CS(=O)(=O)c1ccc(C(=O)NCC2(N3CCOCC3)CCCCC2)cc1`
Reply: > 57.1 µg/mL

Task item: Supply reported solubility kinetic belonging to this molecule: `O=C(N/C(=C/c1ccc(F)cc1)C(=O)N1CCCCC1)c1ccco1`
Reply: > 51.4 µg/mL

Task item: Supply reported solubility kinetic belonging to this molecule: `COc1ccc(CNC(=O)CN(C)S(=O)(=O)c2ccccc2)cc1`
Reply: > 52.3 µg/mL

Task item: Supply reported solubility kinetic belonging to this molecule: `Cc1ccc(Cl)cc1NS(=O)(=O)N1CCOCC1`
Reply: > 43.6 µg/mL
